Cited source for all entries: ChEMBL document CHEMBL4196088

Measured Activity by item
Assay: Induction of apoptosis in HPNE cells assessed as accumulation at sub-G0/G1 phase at 10 uM after 72 hrs by propidium iodide staining based flow cytometry (reference value: 6.6%)
Assay type: cell-based
Settings: human

>  <COMPOUND>
Cl.O[C@H]1CN[C@H](COCCCCCC/C=C/c2ccc(-c3ccccc3)cc2)C1

>  <Activity / %>
93.6

$$$$
>  <COMPOUND>
O[C@H]1[C@@H](O)CN[C@@H]1COCCCCCCCC/C=C/c1ccc(Oc2ccccc2)cc1

>  <Activity / %>
7.9

$$$$
>  <COMPOUND>
CCCCCCCCCCCCCCCCCCOCC(COP(=O)([O-])OCC[N+](C)(C)C)OC (stereo not given)

>  <Activity / %>
4.8

$$$$
>  <COMPOUND>
CCCCCC/C=C/CCCCCCCCOC[C@H]1NC[C@H](O)[C@@H]1O

>  <Activity / %>
2.5

$$$$
>  <COMPOUND>
CCCCCC/C=C\CCCCCCCCOC[C@H]1NC[C@H](O)[C@@H]1O

>  <Activity / %>
42.1

$$$$
>  <COMPOUND>
Cl.O[C@H]1CN[C@H](COCCCCCCCC/C=C/c2ccc(Oc3ccccc3)cc2)C1

>  <Activity / %>
85.9

$$$$
>  <COMPOUND>
Cl.O[C@H]1CN[C@H](COCCCCCCCCC/C=C/c2ccc(Oc3ccccc3)cc2)C1

>  <Activity / %>
88

$$$$
>  <COMPOUND>
Cl.O[C@H]1CN[C@H](COCCCCCCCCC/C=C/c2ccc(-c3ccccc3)cc2)C1

>  <Activity / %>
93.4

$$$$
>  <COMPOUND>
CCCCCCCC/C=C\CCCCCCCCOCC[C@H]1NC[C@H](O)[C@@H]1O

>  <Activity / %>
62.8

$$$$
>  <COMPOUND>
CCCCCCCCCCCCCCCCOC[C@H]1NC[C@H](O)[C@@H]1O

>  <Activity / %>
3.1

$$$$
